Measured GI50 by item
- Test system: IGROV-1
- TEST_DETAILS: NCI tumour cell line growth inhibition, 48 h
Activity calls are given as the source filed them. No stated cut-off is given here; in the data, active = GI50 up to about 1.1 µM and inactive = higher.

The following molecules have reported results that may help.
[
  {
    "MOLECULE": "O=C[C@@H](CO)O[C@H](C=O)c1c[nH]c(=O)[nH]c1=O",
    "GI50": "81.1 µM (inactive)"
  },
  {
    "MOLECULE": "CCc1cccc(CC)c1NC(=O)C(C#N)C1=C(Cl)C(=O)c2ccccc2C1=O (configuration not stated)",
    "GI50": "17.8 µM (inactive)"
  },
  {
    "MOLECULE": "COc1cc(OC)cc(Oc2nc3c(N)cc(C(F)(F)F)cc3nc2-c2ccccc2)c1",
    "GI50": "21.8 µM (inactive)"
  }
]

For the molecule O=C(/C=C/c1ccc2c(c1)OCO2)c1ccc(O)cc1 , give its measured GI50 value.
15.1 µM (inactive)

For the molecule C[C@]12CCC(=O)CC1CCCC2=O (some centres not stated) , give its measured GI50 value.
> 100 µM (inactive)

For the molecule O=C1/C(=C\c2ccc([N+](=O)[O-])cc2)Sc2scc(-c3ccc(O)c(O)c3)[n+]21 , give its measured GI50 value.
5.11 µM (inactive)
